# measurement.target: T1, mouse vascular endothelial growth factor receptor-2 Fc chimera (Flk-1-Fc) (mouse, UniProt P35918 20-762)
# T1 construct: Purchased from R&D Systems; also called mouse VEGF-R2; not shown: Fc part of the purchased chimera
# T1 sequence (P35918 20-762, change not shown): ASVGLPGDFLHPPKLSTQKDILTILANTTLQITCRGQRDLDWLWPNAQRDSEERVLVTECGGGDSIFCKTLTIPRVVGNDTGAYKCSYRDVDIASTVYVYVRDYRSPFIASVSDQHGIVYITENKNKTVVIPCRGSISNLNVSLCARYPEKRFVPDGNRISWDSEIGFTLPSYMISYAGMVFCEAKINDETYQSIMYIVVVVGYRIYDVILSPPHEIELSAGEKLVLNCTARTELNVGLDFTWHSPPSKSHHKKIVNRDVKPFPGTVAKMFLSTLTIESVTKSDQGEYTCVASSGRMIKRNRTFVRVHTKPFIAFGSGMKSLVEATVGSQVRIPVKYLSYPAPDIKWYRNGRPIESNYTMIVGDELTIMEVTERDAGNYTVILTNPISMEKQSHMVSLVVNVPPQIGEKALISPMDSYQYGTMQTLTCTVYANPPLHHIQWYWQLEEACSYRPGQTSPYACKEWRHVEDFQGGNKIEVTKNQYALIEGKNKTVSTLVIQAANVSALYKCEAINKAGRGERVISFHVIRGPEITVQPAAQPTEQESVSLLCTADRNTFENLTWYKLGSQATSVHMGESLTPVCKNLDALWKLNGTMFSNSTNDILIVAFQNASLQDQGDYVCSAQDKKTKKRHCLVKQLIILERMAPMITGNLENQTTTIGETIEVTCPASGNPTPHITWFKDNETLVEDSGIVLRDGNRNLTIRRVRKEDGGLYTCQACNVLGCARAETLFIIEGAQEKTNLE
# assay.procedure: binding to 1 nM Flk-1-Fc, % of input; radioactive equilibrium binding (assay not given)
Decide using Binding to 1 nM FLK, %: a value greater than or equal to 30% is 1.0, a smaller one is 0.0.

{"binder": "E23 (designed binder, Del 1-8 10Fn3 clone; Flag tag not included) EVVAATPTSLLISWRHHPHFPTRYYRITYGETGGNSPVQEFTVPLQPPTATISGLKPGVDYTITGYAVTVHWNGRELMTPISINYRT", "discrete.label": 0.0}
{"binder": "E29 (designed binder, Del 1-8 10Fn3 clone; Tags not included) EVVAATPTSLLISWRHPHFPTRYYRITYGETGGNSPVQEFTVPLQPPTATISGLKPGVDYTITGYAVTVERNGRVLMTPISINYRT", "discrete.label": 1.0}
{"binder": "E25 (designed binder, Del 1-8 10Fn3 clone; Flag tag of the radioactive-assay form not included) EVVAATPTSLLISWRHPHFPTRYYRITYGETGGNSPVQEFTVPLQPPTATISGLKPGVDYTITGYAVTLERNGRELMTPISINYRT", "discrete.label": 0.0}
{"binder": "E26 (designed binder, Del 1-8 10Fn3 clone; Tags not included) EVVAATPTSLLISWRHPHFPTRYYRITYGETGGNSPVQEFTVPLQPPTATISGLKPGVDYTITGYAVTVERNGRELMTPISINYRT", "discrete.label": 0.0}
{"binder": "E17 (designed binder, Del 1-8 10Fn3 clone; Flag tag of the radioactive-assay form not included) EVVAATPTSLLISWRHPHFPTRYYRITYGETGGNSPVQEFTVPLQPPTATISGLKPGVDYTITGYAVTVEENGRVLNTPISINYRT", "discrete.label": 0.0}
